- methodDescription: Metabolic stability in mouse liver microsomes assessed as intrinsic clearance measured per mg protein
- Format: ADME, Microsome
- conditions: read-out: CLH

{"sampleSmiles": "COc1ccc(-c2cnc(NC(=O)c3ccc(F)cc3)n2C)cc1", "microsomal CLint": "396 µL/min/mg"}
{"sampleSmiles": "Cn1c(-c2ccc(Cl)cc2)cnc1NC(=O)c1ncc[nH]1", "microsomal CLint": "41 µL/min/mg"}
{"sampleSmiles": "Cn1c(-c2ccccc2)cnc1NC(=O)c1ncc[nH]1", "microsomal CLint": "> 866 µL/min/mg"}
{"sampleSmiles": "Cn1c(-c2cccc(Cl)c2)cnc1NC(=O)c1ncc[nH]1", "microsomal CLint": "21 µL/min/mg"}
{"sampleSmiles": "COc1ccc(-c2cnc(NC(=O)c3ncc[nH]3)n2C)cc1", "microsomal CLint": "511 µL/min/mg"}

---

metabolised reference
- methodDescription: Drug degradation in human liver microsomes
- Assay type: ADME, Microsome
- conditions: read-out: Drug degradation

{"sampleSmiles": "COc1ccc(-c2cnc(NC(=O)c3ncc[nH]3)n2C)cc1", "metabolised": "< 15%"}
{"sampleSmiles": "Cn1c(-c2cccc(Cl)c2)cnc1NC(=O)c1ncc[nH]1", "metabolised": "< 15%"}
{"sampleSmiles": "Cn1c(-c2ccc(Cl)cc2)cnc1NC(=O)c1ncc[nH]1", "metabolised": "< 15%"}

---

- methodDescription: Cytotoxicity against human THP-1 cells assessed as cell growth inhibition
- Assay type: toxicity, cell-based

{"sampleSmiles": "COc1ccc(-c2cnc(NC(=O)c3ccc(F)cc3)n2-c2ccccc2)cc1", "CC50": "8.8 µM"}
{"sampleSmiles": "Cn1c(-c2ccccc2)cnc1NC(=O)c1ccccc1", "CC50": "> 100 µM"}
{"sampleSmiles": "COc1ccc(-c2cnc(NC(=O)c3ccco3)n2C)cc1", "CC50": "> 100 µM"}
{"sampleSmiles": "COc1ccc(-c2cnc(NC(=O)c3ccccc3Br)n2C)cc1", "CC50": "> 100 µM"}
{"sampleSmiles": "COc1ccc(-c2cnc(NC(=O)C3CCCCC3)n2C)cc1", "CC50": "> 100 µM"}

---

In this section we review reported solubility kinetic values for a set of compounds.
- methodDescription: Kinetic solubility of the compound at pH 6.5 by nephelometry
- Type: physicochemical
- conditions: buffer, read-out: Kinetic_solubility

{"sampleSmiles": "Cn1c(-c2ccc(Cl)cc2)cnc1NC(=O)c1ncc[nH]1", "boundType": "=", "solubility kinetic [µg/mL]": 25}
{"sampleSmiles": "Cn1c(-c2ccccc2)cnc1NC(=O)c1ccc(F)cc1", "boundType": "=", "solubility kinetic [µg/mL]": 25}
{"sampleSmiles": "Cn1c(-c2cccc(Cl)c2)cnc1NC(=O)c1ncc[nH]1", "boundType": "=", "solubility kinetic [µg/mL]": 3.1}
{"sampleSmiles": "COc1ccc(-c2cnc(NC(=O)c3ccc(F)cc3)n2C)cc1", "boundType": "<", "solubility kinetic [µg/mL]": 1.6}
{"sampleSmiles": "O=C(Nc1ncc(-c2ccccc2)o1)c1ccc(F)cc1", "boundType": "=", "solubility kinetic [µg/mL]": 6.3}
{"sampleSmiles": "COc1ccc(-c2cnc(NC(=O)c3ncc[nH]3)n2C)cc1", "boundType": "=", "solubility kinetic [µg/mL]": 6.3}

---

- methodDescription: Selectivity index, ratio of CC50 for cytotoxicity against human THP-1 cells to IC50 for antileishmanial activity against Leishmania donovani infected in human THP-1 cells
- Format: toxicity, cell-based
- conditions: read-out: Ratio CC50/IC50

{"sampleSmiles": "COc1ccc(-c2cnc(NC(=O)c3ccccc3OC)n2C)cc1", "selectivity ratio": "> 3"}
{"sampleSmiles": "COc1ccc(-c2cnc(NC(=O)c3cccc(Cl)c3)n2C)cc1", "selectivity ratio": "> 2.8"}
{"sampleSmiles": "Cn1c(-c2cccc(Cl)c2)cnc1NC(=O)c1ccc(F)cc1", "selectivity ratio": "> 2.3"}
{"sampleSmiles": "COc1ccc(-c2noc(NC(=O)c3ccc(F)cc3)c2C)cc1", "selectivity ratio": "> 1"}
{"sampleSmiles": "COc1ccc(CN(C)C(=O)NC(=O)c2ccc(F)cc2)cc1", "selectivity ratio": "> 1"}
{"sampleSmiles": "Cn1cc(-c2ccccc2)nc1NC(=O)c1ccc(F)cc1", "selectivity ratio": "> 1"}
